// provenance: patent US12018229B2

ASSAY PROCEDURE: Determination of GC-odor threshold values (gas chromatograph with sniff port, panel of trained evaluators)
TEST SETTINGS: absolute amount of compound delivered at the sniff port, identical conditions
Hi there, I'd appreciate the recorded odor threshold value for every entry that follows.
Reply numerically in ng, unit not repeated.

Task: I'd like to know its odor threshold value. The compound in question is CC1=CCOC(Cc2ccccc2)C1 (centres unmarked) [Example 3, 2-Benzyl-4-methyl-3,6-dihydro-2H-pyran]
Result: 0.03

Task: Same lookup for CC1=CC(C)OC(CCCc2ccccc2)C1 (centres unmarked) , please.
Result: 0.03

Task: Same lookup for CC1=CCOC(CCCc2ccccc2)C1 (centres unmarked) , please.
Result: 0.02

Task: Same lookup for CC1=CCOC(CCc2ccccc2)C1 (centres unmarked) [Example 5, reference compound] , please.
Result: 45

Task: Same lookup for CC1=CCOC(CCCCc2ccccc2)C1 (centres unmarked) [Example 4, reference compound] , please.
Result: 63
